test system: rat platelet; assay: Inhibitory activity of aggregation in rat platelet; assay type: cell-based; conditions: rat platelet rich plasma, arachidonic acid (final concentration 0.5 mM) as inducer; read-out: C: Inhibitory activity of aggregation in rat platelet (IC50; μM)
# MET = IC50 below 0.5 µM (exclusive); NOT MET = IC50 at/above 0.5 µM

Worked set:
Molecule	Assigned Class
O=C(O)Cc1ccc(NC(=O)C(COc2ccccc2)NS(=O)(=O)c2ccc(Br)cc2)cc1 (racemic)	NOT MET
O=C(O)CCCNC(=O)C(COC1CCCCO1)NS(=O)(=O)c1ccc(Cl)cc1 (racemic)	NOT MET
O=C(O)Cc1ccc(NC(=O)C(COC2CCCCO2)NS(=O)(=O)c2ccc(Br)cc2)cc1 (racemic)	MET
O=C(O)Cc1ccc(NC(=O)C(COC2CCCCO2)NS(=O)(=O)c2ccc(F)cc2)cc1 (racemic)	NOT MET
O=C(O)Cc1ccc(NC(=O)C(COc2ccc(Cl)cc2)NS(=O)(=O)c2ccc(Cl)cc2)cc1 (racemic)	NOT MET
O=C(O)Cc1ccc(NC(=O)C(COc2cccnc2)NS(=O)(=O)c2ccc(F)cc2)cc1 (racemic)	MET

As a next step, examine the molecule that follows.
Here's an entry: "O=C(O)Cc1ccc(NC(=O)[C@H](Cc2ccccc2)NS(=O)(=O)c2ccc(Cl)cc2)cc1" . Is its IC50 below 0.5 µM?
MET

* * *

biological target: thromboxane A2 (TxA2) receptor (Cavia porcellus, UniProt A0A286Y4I8); construct: to obtain washed platelets; from tissue; host or cells: washed platelets of male Hartley guinea pigs; experiment: TxA2 antagonist action by binding assay; details: washed guinea pig platelets, 1 nM [3H]-SQ29,548, 45 minutes at 25° C.
Sequence (A0A286Y4I8 1-347): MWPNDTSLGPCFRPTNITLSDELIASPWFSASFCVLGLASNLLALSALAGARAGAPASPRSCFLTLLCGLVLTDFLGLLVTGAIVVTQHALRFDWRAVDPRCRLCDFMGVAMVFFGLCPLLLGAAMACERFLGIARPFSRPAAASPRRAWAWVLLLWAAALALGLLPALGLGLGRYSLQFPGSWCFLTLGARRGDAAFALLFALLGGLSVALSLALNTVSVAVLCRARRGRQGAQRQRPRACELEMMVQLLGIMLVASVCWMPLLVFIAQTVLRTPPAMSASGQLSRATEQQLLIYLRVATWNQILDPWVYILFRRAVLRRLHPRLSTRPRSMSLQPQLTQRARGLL
Parameter Measured: IC50 (µM)
Could you give me the number in µM? Just the number is fine.

Worked set:
Compound	Experimental Result
CSCC[C@H](NS(=O)(=O)c1ccc(Br)cc1)C(=O)Nc1ccc(CC(=O)O)cc1	0.026
O=C(O)Cc1ccc(NC(=O)C(Cn2ccnc2)NS(=O)(=O)c2ccc(F)cc2)cc1 (racemic)	1.9
O=C(O)CCc1ccc(NC(=O)C(CCc2ccccc2)NS(=O)(=O)c2ccc(Cl)cc2)cc1 (racemic)	0.17
O=C(O)Cc1ccc(NC(=O)C(Cc2ccccc2)NS(=O)(=O)c2ccc(Cl)cc2)cc1 (racemic)	0.046
O=C(O)c1cccc(NC(=O)C(COC2CCCCO2)NS(=O)(=O)c2ccc(Cl)cc2)c1 (racemic)	0.4

Answer with reported IC50 of "CCCC[C@H](NS(=O)(=O)c1ccc(Cl)cc1)C(=O)Nc1ccc(CC(=O)O)cc1"
0.13

Give me measured IC50, please, for this compound: O=C(O)Cc1ccc(NC(=O)C(COC2CCCCO2)NS(=O)(=O)c2ccc3ccccc3c2)cc1 (racemic)
0.23

* * *

Target: thromboxane A2 (TxA2) receptor (Cavia porcellus)
Construct: to obtain washed platelets; from tissue; host or cells: washed platelets of male Hartley guinea pigs
Assay: TxA2 antagonist action by binding assay
Settings: washed guinea pig platelets, 1 nM [3H]-SQ29,548, 45 minutes at 25° C.
Experimental: (1) TxA2 antagonist action by binding assay Guinea pigs (Hartley; male; body weight=approximately 500 g) were anesthetized with ether, and the blood was collected into sodium citrate (final concentration=0.38%). […] The number of platelets was counted by an automatic blood cell counter (Sysmex Microcellcounter F-800) and the sample was diluted with the suspension buffer to 4×10^8 cells/ml. […] IC50 was calculated from (binding)/(control binding) ratio in the presence of an antagonist. […]
We label by threshold. Values of IC50 strictly beneath 0.4 µM are true. Values of 0.4 µM and up are false.

Worked examples follow.
Molecule	Target Under Test	Assigned Class
O=C(O)Cc1ccc(NC(=O)C(COc2cccnc2)NS(=O)(=O)c2ccc(Br)cc2)cc1 (racemic)	thromboxane A2 (TxA2) receptor (Cavia porcellus)	true
O=C(O)Cc1ccc(NC(=O)C(COc2cccc(Cl)c2)NS(=O)(=O)c2ccc(I)cc2)cc1 (racemic)	thromboxane A2 (TxA2) receptor (Cavia porcellus)	true
COc1ccc(S(=O)(=O)NC(COC2CCCCO2)C(=O)Nc2ccc(CC(=O)O)cc2)cc1 (racemic)	thromboxane A2 (TxA2) receptor (Cavia porcellus)	true

Criterion: IC50 strictly below 0.4 µM. Is it met by O=C(O)c1ccc(NC(=O)[C@H](COC2CCCCO2)NS(=O)(=O)c2ccc(Cl)cc2)cc1 (stereo partly shown) ?
true
